The reported measurements were obtained from patent US11076594B2.

system: corn; experiment: post-emergence stage experiment, crop (Table 1); format: in vivo; conditions: post-emergence spray at 4-5 leaf stage, 250 g/ha active ingredient with 450 kg/ha water, rated after 3 weeks in greenhouse
reported-metric: effect on crop, Corn (level)

Qu. Respond only with effect on crop, Corn (level) recorded for CCOC(=O)Oc1c(C(=O)c2ccc(C(F)(F)F)c(N3CCCCC3=O)c2Cl)c(C)nn1C [Compound 036]
Ans. 0

Qu. Respond only with effect on crop, Corn (level) recorded for CCOc1c(C(=O)Oc2c(C(=O)c3ccc(C(F)(F)F)c(-n4cc(C)cn4)c3Cl)c(C)nn2C)cnn1C [Compound 086]
Ans. 0

Here is another compound to look at.
Qu. Respond only with effect on crop, Corn (level) recorded for CCOC(=O)Oc1c(C(=O)c2ccc(C(F)(F)F)c(-n3cc(C)cn3)c2Cl)c(C)nn1C [Compound 085]
Ans. 0

###

system: flixweed; assay: wheat field resistant broadleaf weed control, greenhouse spray at 4 leaf stage; type: in vivo; design: key: Level 10: completely dead; Level 9: above 95% growth control rate; Level 8: above 90% growth control rate; Level 7: above 80% growth control rate; Level 6: above 70% growth control rate; Level 5: above 60% growth control rate; Level 4: above 50% growth control rate; Level 3: above 20% growth control rate; Level 2: 5%-20% growth control rate; Level 1: below 5% growth control rate; conditions: 250 g/ha of the active substance; 4 weeks after treatment; ALS inhibitor resistant
Reported flixweed weed controlling effect (activity level) values follow for various compounds
Form: value (number only, do not type unit).

Example entries begin here.
Qu. Respond only with flixweed weed controlling effect (activity level) recorded for CC(=O)N(CC(F)F)c1c(C(F)(F)F)ccc(C(=O)c2c(C)nn(C)c2O)c1Cl
Ans. 10

Qu. Respond only with flixweed weed controlling effect (activity level) recorded for CCOc1c(C(=O)Oc2c(C(=O)c3ccc(C(F)(F)F)c(N4CCCCCC4=O)c3Cl)c(C)nn2C)cnn1C
Ans. 10

Qu. Respond only with flixweed weed controlling effect (activity level) recorded for CCn1ncc(C(=O)c2ccc(C(F)(F)F)c(N3CCCC3=O)c2Cl)c1O
Ans. 10

Qu. Respond only with flixweed weed controlling effect (activity level) recorded for CCn1nc(C)c(C(=O)c2ccc(C(F)(F)F)c(-n3cccn3)c2Cl)c1OC(=O)c1cn(C)nc1C
Ans. 10

Qu. Respond only with flixweed weed controlling effect (activity level) recorded for Cn1cc(C(=O)Oc2c(C(=O)c3ccc(C(F)(F)F)c(N4CCCCCC4=O)c3Cl)c(C3CC3)nn2C)cn1
Ans. 10

Qu. Respond only with flixweed weed controlling effect (activity level) recorded for CCn1nc(C2CC2)c(C(=O)c2ccc(C(F)(F)F)c(-n3cccn3)c2Cl)c1O
Ans. 10

Continuing:
Qu. Respond only with flixweed weed controlling effect (activity level) recorded for Cn1nc(C2CC2)c(C(=O)c2ccc(C(F)(F)F)c(N3CCCCC3=O)c2Cl)c1O
Ans. 10

###

system: wheat; experiment: post-emergence stage experiment, crop (Table 1); assay type: in vivo; details: post-emergence spray at 4-5 leaf stage, 250 g/ha active ingredient with 450 kg/ha water, rated after 3 weeks in greenhouse
reported-metric: effect on crop, Wheat (level)

Example entries begin here.
Qu. Write effect on crop, Wheat (level) of COCCOCCCN(C(C)=O)c1c(C(F)(F)F)ccc(C(=O)c2c(C)nn(C)c2O)c1Cl ; system used: wheat
Ans. 0

Qu. Write effect on crop, Wheat (level) of CC(=O)N(CC(F)F)c1c(C(F)(F)F)ccc(C(=O)c2c(C)nn(C)c2O)c1Cl ; system used: wheat
Ans. 0

Qu. Write effect on crop, Wheat (level) of Cc1nn(C)cc1C(=O)Oc1c(C(=O)c2ccc(C(F)(F)F)c(-n3cccn3)c2Cl)c(C2CC2)nn1C ; system used: wheat
Ans. 2 (Level 2: 5%-20% growth control rate)

Here is another compound to look at.
Qu. Write effect on crop, Wheat (level) of CCOCCCN(C(C)=O)c1c(C(F)(F)F)ccc(C(=O)c2c(C)nn(C)c2O)c1Cl ; system used: wheat
Ans. 0

###

test system: wheat; test: wheat field test, crop selectivity, greenhouse spray at 4 leaf stage; type: in vivo; details: 2 g/mu; sprayed at 4 leaf stage; 4 weeks after treatment
reported-metric: Wheat (activity level, crop damage)
Form: value (number only, do not type unit).

Qu. Respond only with Wheat (activity level, crop damage) recorded for CCS(=O)(=O)Oc1c(C(=O)c2ccc(C(F)(F)F)c(N3CCCC3=O)c2Cl)c(C)nn1C
Ans. 0

Continuing:
Qu. Respond only with Wheat (activity level, crop damage) recorded for CCOc1c(C(=O)Oc2c(C(=O)c3ccc(C(F)(F)F)c(N4CCCC4=O)c3Cl)c(C)nn2C)cnn1C
Ans. 0

###

Reported effect on crop, Rice (level) values follow for various compounds
Test system: rice
Test: post-emergence stage experiment, crop (Table 1)
Format: in vivo
Design: key: Level 10: completely dead; Level 9: above 95% growth control rate; Level 8: above 90% growth control rate; Level 7: above 80% growth control rate; Level 6: above 70% growth control rate; Level 5: above 60% growth control rate; Level 4: above 50% growth control rate; Level 3: above 20% growth control rate; Level 2: 5%-20% growth control rate; Level 1: below 5% growth control rate
Conditions: post-emergence spray at 4-5 leaf stage, 250 g/ha active ingredient with 450 kg/ha water, rated after 3 weeks in greenhouse
Text: The activity level standard of harmful plant destruction (i.e. growth control rate) is as follows: The above described growth control rate is fresh weight control rate. Monocotyledonous and dicotyledonous weed seeds and main crop seeds (i.e. wheat, corn, rice, soybean, cotton, oilseed, millet and sorghum.) were put into a plastic pot loaded with soil. Then covered with 0.5-2 cm soil, the seeds were allowed to grow in good greenhouse environment. […]

Example entries begin here.
Qu. Respond only with effect on crop, Rice (level) recorded for CCn1nc(C2CC2)c(C(=O)c2ccc(C(F)(F)F)c(-n3cccn3)c2Cl)c1O
Ans. 10

Qu. Respond only with effect on crop, Rice (level) recorded for COCCOCCCN(C(C)=O)c1c(C(F)(F)F)ccc(C(=O)c2c(C)nn(C)c2O)c1Cl
Ans. 0

Qu. Respond only with effect on crop, Rice (level) recorded for CCn1nc(C2CC2)c(C(=O)c2ccc(C(F)(F)F)c(N3CCCC3=O)c2Cl)c1OC(=O)c1cn(C)nc1C
Ans. 10

Here is another compound to look at.
Qu. Respond only with effect on crop, Rice (level) recorded for CCc1nn(C)c(OC(=O)c2cn(C)nc2C)c1C(=O)c1ccc(C(F)(F)F)c(N2CCCC2=O)c1Cl
Ans. 10

###

tested on: wheat; assay: post-emergence stage experiment, crop (Table 1); type: in vivo; details: post-emergence spray at 4-5 leaf stage, 250 g/ha active ingredient with 450 kg/ha water, rated after 3 weeks in greenhouse
reported-metric: effect on crop, Wheat (level)
Form: value (number only, do not type unit).

Example entries begin here.
Qu. Respond only with effect on crop, Wheat (level) recorded for Cc1nn(C)c(OC(=O)c2cnn(C)c2)c1C(=O)c1ccc(C(F)(F)F)c(-n2cccn2)c1Cl
Ans. 0

Qu. Respond only with effect on crop, Wheat (level) recorded for Cc1nn(C)c(O)c1C(=O)c1ccc(C(F)(F)F)c(-n2ccnc2)c1Cl
Ans. 0

Here is another compound to look at.
Qu. Respond only with effect on crop, Wheat (level) recorded for Cc1ccn(-c2c(C(F)(F)F)ccc(C(=O)c3c(C)nn(C)c3O)c2Cl)n1
Ans. 0

###

tested on: wheat; test: post-emergence stage experiment, crop (Table 1); assay type: in vivo; conditions: post-emergence spray at 4-5 leaf stage, 250 g/ha active ingredient with 450 kg/ha water, rated after 3 weeks in greenhouse
reported-metric: effect on crop, Wheat (level)
Form: value (number only, do not type unit).

Qu. Respond only with effect on crop, Wheat (level) recorded for Cc1nn(C)cc1C(=O)Oc1c(C(=O)c2ccc(C(F)(F)F)c(N3CCCCCC3=O)c2Cl)cnn1C
Ans. 0

Here is another compound to look at.
Qu. Respond only with effect on crop, Wheat (level) recorded for CCn1ncc(C(=O)c2ccc(C(F)(F)F)c(N3CCCCCC3=O)c2Cl)c1OC(=O)c1cn(C)nc1C
Ans. 0

###

Reported effect on crop, Wheat (level) values follow for various molecules
tested on: wheat; test: post-emergence stage experiment, crop (Table 1); format: in vivo; details: post-emergence spray at 4-5 leaf stage, 250 g/ha active ingredient with 450 kg/ha water, rated after 3 weeks in greenhouse
Form: value (number only, do not type unit).

Qu. Write effect on crop, Wheat (level) of CCOC(=O)Oc1c(C(=O)c2ccc(C(F)(F)F)c(-n3cccn3)c2Cl)c(C)nn1C ; system used: wheat
Ans. 0

Qu. Write effect on crop, Wheat (level) of CCCCOCCCN(C(C)=O)c1c(C(F)(F)F)ccc(C(=O)c2c(C)nn(C)c2O)c1Cl ; system used: wheat
Ans. 0

Continuing:
Qu. Write effect on crop, Wheat (level) of Cc1cnn(-c2c(C(F)(F)F)ccc(C(=O)c3cnn(C)c3OC(=O)c3cnn(C)c3)c2Cl)c1 ; system used: wheat
Ans. 0
